species on record: Homo sapiens; experiment: Binding affinity to 15N-labeled RING1B (10 to 116 residues)/BMI1 (1 to 104 residues) (unknown origin) extracted from Escherichia coli BL21 (DE3) cells assessed as sum of A79, G83 and T89 chemical shift perturbations at 100 uM by NMR binding analysis
outcome-measure: Activity (Hz)

Example compounds with recorded Activity:
>  <smiles-str>
CC(C)c1c(-c2cc(F)cc3[nH]ccc23)[nH]c(C(=O)O)c1-c1cc(Cl)cc2[nH]ccc12

>  <outcome-measure>
Activity

>  <result>
280

$$$$
>  <smiles-str>
CCc1c(-c2cccc3[nH]ccc23)[nH]c(C(=O)O)c1-c1cccc2[nH]ccc12

>  <outcome-measure>
Activity

>  <result>
102

$$$$
>  <smiles-str>
CCc1cc(-c2c(C(=O)O)[nH]c(-c3cc(F)cc4[nH]ccc34)c2C(C)C)c2cc[nH]c2c1

>  <outcome-measure>
Activity

>  <result>
285

$$$$
>  <smiles-str>
CC(C)c1c(-c2cc(F)cc3[nH]ccc23)[nH]c(C(=O)O)c1-c1c(Cl)ccc2[nH]ccc12

>  <outcome-measure>
Activity

>  <result>
248

$$$$
>  <smiles-str>
CC(C)c1c(-c2cccc3[nH]ccc23)[nH]c(C(=O)O)c1-c1cccc2[nH]ccc12

>  <outcome-measure>
Activity

>  <result>
295

$$$$
>  <smiles-str>
Cc1cc(-c2c(C(=O)O)[nH]c(-c3cc(F)cc4[nH]ccc34)c2C(C)C)c2cc[nH]c2c1

>  <outcome-measure>
Activity

>  <result>
261

$$$$

1 = CC(C)c1c(-c2cc(F)cc3[nH]ccc23)[nH]c(C(=O)O)c1-c1cc(F)cc2[nH]ccc12
2 = O=C(O)c1[nH]c(-c2cccc3[nH]ccc23)c(C2CC2)c1-c1cccc2[nH]ccc12
Query block: // which entry reports the smaller Activity, 1 or 2 ? # reply format: chosen label
Result block: 2
(2: 138 Hz, 1: 320 Hz)

====

assay: Inhibition of 6His-tagged RING1B (10 to 116 residues)/BMI1 (1 to 104 residues) (unknown origin) extracted from Escherichia coli BL21 (DE3) cells preincubated with compound for 1 hrs followed by 3-(1-(4,26-dioxo-30-((3aS,4S,6aR)-2-oxohexahydro-1H-thieno[3,4-d]imidazol-4-yl)-7,10,13,16,19,22-hexaoxa-3,25-diazatriacontyl)-6-methoxy-1H-indol-4-yl)-5-(6-fluoro-1H-indol-4-yl)-4-isopropyl-1H-pyrrole-2-carboxylic acid addition and measured after 1 hrs by Alphascreen competition assay; design: species or system Homo sapiens
outcome-measure: IC50 (µM)

>  <molecule>
CC(C)c1c(-c2ccc3cc[nH]c3c2)[nH]c(C(=O)O)c1-c1c(Cl)ccc2[nH]ccc12

>  <result-unit>
µM

>  <IC50>
10.9

$$$$
>  <molecule>
CC(C)c1c(-c2cc(F)cc3[nH]ccc23)[nH]c(C(=O)O)c1-c1cc(C(F)(F)F)cc2[nH]ccc12

>  <result-unit>
µM

>  <IC50>
5.5

$$$$
>  <molecule>
CCc1cc(-c2c(C(=O)O)[nH]c(-c3cc(F)cc4[nH]ccc34)c2C(C)C)c2cc[nH]c2c1

>  <result-unit>
µM

>  <IC50>
5.4

$$$$
>  <molecule>
CCC(C)c1c(-c2cccc3[nH]ccc23)[nH]c(C(=O)O)c1-c1cccc2[nH]ccc12 (stereo not drawn)

>  <result-unit>
µM

>  <IC50>
5.6

$$$$
>  <molecule>
O=C(O)c1[nH]c(-c2cccc3[nH]ccc23)c(C2CC2)c1-c1cccc2[nH]ccc12

>  <result-unit>
µM

>  <IC50>
15.8

$$$$

1 = CCc1c(-c2cccc3[nH]ccc23)[nH]c(C(=O)O)c1-c1cccc2[nH]ccc12
2 = CC(C)c1c(-c2cc(F)cc3cc[nH]c23)[nH]c(C(=O)O)c1-c1c(Cl)ccc2[nH]ccc12
3 = CCc1cc(-c2[nH]c(C(=O)O)c(-c3c(Cl)ccc4[nH]ccc34)c2C(C)C)c2cc[nH]c2c1
Query block: Put the items in order so that reported IC50 rises from first to last. Use the labels to give the requested order.
Result block: 2, 3, 1
(2: 4.4 µM, 3: 6.3 µM, 1: 13 µM)
